- assaySystem: D(2) dopamine receptor (Homo sapiens, UniProt P14416)
- Sequence (P14416 whole entry): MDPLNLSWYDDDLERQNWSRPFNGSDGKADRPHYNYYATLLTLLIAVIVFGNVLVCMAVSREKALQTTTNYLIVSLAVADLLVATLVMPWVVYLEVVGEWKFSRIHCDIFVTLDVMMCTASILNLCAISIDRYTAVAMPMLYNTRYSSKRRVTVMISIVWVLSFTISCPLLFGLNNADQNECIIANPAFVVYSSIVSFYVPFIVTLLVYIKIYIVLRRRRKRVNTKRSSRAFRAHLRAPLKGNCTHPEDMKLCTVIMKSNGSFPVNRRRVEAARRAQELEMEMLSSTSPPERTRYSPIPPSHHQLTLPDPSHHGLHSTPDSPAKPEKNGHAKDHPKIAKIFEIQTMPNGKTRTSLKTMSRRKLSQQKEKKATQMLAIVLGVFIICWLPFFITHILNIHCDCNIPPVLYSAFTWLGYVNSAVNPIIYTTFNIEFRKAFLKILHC
- protocolDetails: Binding affinity at cloned human D2 dopamine receptor in CHO cells using [3H]-YM 09151 as radioligand
measuredAttribute: Ki (nM)
The response must be a number in nM with no trailing unit.

Which Ki is reported for this molecule? `COc1ccccc1N1CCN(CCCNC2=Nc3ccccc3OC2)CC1`
280

---

- assaySystem: D(4) dopamine receptor (Homo sapiens)
- Sequence (P21917 whole entry): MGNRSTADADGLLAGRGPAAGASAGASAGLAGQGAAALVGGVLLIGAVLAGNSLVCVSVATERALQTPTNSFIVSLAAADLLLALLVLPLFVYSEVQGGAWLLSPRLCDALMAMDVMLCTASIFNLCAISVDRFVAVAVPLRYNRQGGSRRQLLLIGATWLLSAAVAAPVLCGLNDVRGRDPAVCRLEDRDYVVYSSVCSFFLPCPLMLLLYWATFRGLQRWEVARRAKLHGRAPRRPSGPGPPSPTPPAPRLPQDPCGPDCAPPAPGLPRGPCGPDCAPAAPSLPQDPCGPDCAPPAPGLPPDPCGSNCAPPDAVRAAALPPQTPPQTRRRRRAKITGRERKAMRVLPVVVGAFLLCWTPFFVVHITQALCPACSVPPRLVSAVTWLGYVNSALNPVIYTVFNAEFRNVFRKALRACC
- protocolDetails: Binding affinity at cloned human D4 dopamine receptor in CHO cells using [3H]-YM 09151 as radioligand
measuredAttribute: pKi
On this scale, pKi is minus log10 of a concentration expressed in M (mol/L).

What value of pKi has been recorded for this entry: `COc1ccccc1N1CCN(CCCNC2=Nc3ccccc3OC2)CC1`
8.52

Reported pKi for `c1ccc2c(c1)N=C(NCCCCCN1CCN(c3ccc4ccccc4n3)CC1)CO2` : what is it?
6.90
